From: ChEMBL document CHEMBL1157539

test system: Plasmodium falciparum; assay: GSK_TCMDC: Inhibition of Plasmodium falciparum Dd2 in whole red blood cells, using parasite LDH activity as an index of growth. Test compounds present at 2uM; assay type: functional
Consider the cut-off 80%. If the recorded Inhibition is strictly smaller, the label is yes (1); if not, the label is no (0).

COMPOUND	TEST_TARGET	CLASSIFICATION
COc1cc(C2Nc3ccc4ccccc4c3C3=C2C(=O)CC(C)(C)C3)ccc1Oc1ccc([N+](=O)[O-])cc1C#N (stereo not drawn)	Plasmodium falciparum	no (0)
CCOc1cc(C(=O)NCc2cc(Cl)cc(Cl)c2)ccc1-c1nc2cc(Cl)ccc2[nH]1	Plasmodium falciparum	yes (1)
Cc1sc2nc(CSc3ccccc3)nc(N3CCN(CC(=O)N4CCCC4)CC3)c2c1C	Plasmodium falciparum	yes (1)

In plain terms, does O=C(Cn1c(CCc2cccc(F)c2F)cc(=O)c2cccnc21)N(CCN1CCCC1)Cc1ccc(-c2ccc(C(F)(F)F)cc2)cc1.O=C(O)C(O)C(O)C(=O)O come in under 80% for Inhibition?
yes (1)

Also need CCCc1cc(OC)c(CC2c3cccc(O)c3CCN2C)cc1OC.Cl (stereo not drawn) , thanks.
no (0)

Also need COc1ccc2c(c1)Sc1ccccc1C(N1CCN(CCO)CC1)C2.Cl (stereo not drawn) , thanks.
yes (1)

Also need CN(C)CCCOc1ccc(CNCC(C)(C)c2nc(-c3ccc(Cl)c(O)c3)c(-c3ccncc3)[nH]2)cc1.Cl , thanks.
yes (1)
